Molecular target: UniProt:Q07343
Assay: In-vitro assay for PDE4 enzymes, real-time enzyme-coupled spectrophotometric assay, PDE4B Activity (Table 10)
Format: biochemical
Conditions: human PDE4B (hPDE4B), enzyme-coupled spectrophotometric assay; read-out: PDE4B Activity, hPDE4B
pIC50: −log10 of the molar value. Structures can show the parent of a compound that is named as a salt.
propertyName: pIC50

# compound, pIC50
data = [
    ("COc1ccc(Cn2ccccc2=O)cc1-c1cccc(Cl)c1", "> 5.30"),
    ("COc1ccc(Cc2ccc(-n3cccn3)cc2)c(O)c1-c1cccc([N+](=O)[O-])c1", "> 5.30"),
    ("COc1ccc(CN2CCCC2=O)cc1-c1cccc([N+](=O)[O-])c1", "> 5.30"),
    ("COc1ccc(C(C)(O)c2ccc(NC(N)=O)cc2)c(F)c1-c1cccc(Cl)c1 (stereo not drawn)", "4.70 to 5.30"),
    ("NCCOc1ccc(Cc2ccc(NC(N)=O)cc2)cc1-c1cccc(Cl)c1", "4.40 to 4.68"),
]

Here is the next item to consider.
Query: In one line, give reported pIC50 of the entry COc1ccc(Nc2ccc(N)cc2)cc1-c1cccc(C(C)=O)c1 [P-260, hydrochloride] .
Result: 4.70 to 5.30

###

IC50 by entry:
Molecular target: PDE4 (Homo sapiens)
Sequence (Q08499 whole entry): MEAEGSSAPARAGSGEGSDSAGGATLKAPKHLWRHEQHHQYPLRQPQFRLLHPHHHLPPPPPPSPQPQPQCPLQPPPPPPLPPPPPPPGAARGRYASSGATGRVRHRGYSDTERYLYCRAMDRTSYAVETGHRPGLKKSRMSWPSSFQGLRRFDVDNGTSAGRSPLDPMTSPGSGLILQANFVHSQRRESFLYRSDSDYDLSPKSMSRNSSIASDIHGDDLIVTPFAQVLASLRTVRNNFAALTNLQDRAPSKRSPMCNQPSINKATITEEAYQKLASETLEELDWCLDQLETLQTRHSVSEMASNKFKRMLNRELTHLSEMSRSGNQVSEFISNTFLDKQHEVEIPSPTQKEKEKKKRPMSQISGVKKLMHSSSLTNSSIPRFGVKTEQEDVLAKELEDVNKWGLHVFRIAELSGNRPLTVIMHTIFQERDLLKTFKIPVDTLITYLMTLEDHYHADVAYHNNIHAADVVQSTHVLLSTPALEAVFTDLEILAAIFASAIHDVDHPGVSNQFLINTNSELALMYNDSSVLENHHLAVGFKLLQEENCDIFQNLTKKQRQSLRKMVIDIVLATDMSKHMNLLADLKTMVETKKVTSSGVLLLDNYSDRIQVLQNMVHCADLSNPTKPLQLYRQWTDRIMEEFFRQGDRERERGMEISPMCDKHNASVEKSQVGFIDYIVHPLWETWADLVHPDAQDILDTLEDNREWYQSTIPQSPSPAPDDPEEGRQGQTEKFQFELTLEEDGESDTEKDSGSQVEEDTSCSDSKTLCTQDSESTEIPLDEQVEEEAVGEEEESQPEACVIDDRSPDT
Experiment: In-vitro assay for PDE4 enzymes, real-time enzyme-coupled spectrophotometric assay (Table 9)
Format: biochemical
Conditions: human PDE4D; activity class, Table 9; read-out: hPDE4D

# sampleSmiles, IC50
measured = [
    ("COc1ccc(Cc2ccc(N3CCC3)nc2)c(F)c1-c1cccc(Cl)c1", "< 5 µM"),
    ("COc1ccc(COc2ccccn2)cc1-c1cccc([N+](=O)[O-])c1", "5 to 20 µM"),
    ("COc1ccc(Cc2ccc(NC(C)=O)cc2)c(F)c1-c1cccc(Br)c1", "< 5 µM"),
    ("COc1ccc(Cc2ccc(N3CC[C@@H]3C(N)=O)nc2)c(F)c1-c1cccc(Cl)c1", "< 5 µM"),
]

Here is the next item to consider.
Query: In one line, give reported IC50 of the entry "COc1ccc(Cn2cnc3ccccc32)cc1-c1ccc2nonc2c1" .
Result: 5 to 20 µM

###

Biological target: PDE4B (Homo sapiens)
Sequence (Q07343 whole entry): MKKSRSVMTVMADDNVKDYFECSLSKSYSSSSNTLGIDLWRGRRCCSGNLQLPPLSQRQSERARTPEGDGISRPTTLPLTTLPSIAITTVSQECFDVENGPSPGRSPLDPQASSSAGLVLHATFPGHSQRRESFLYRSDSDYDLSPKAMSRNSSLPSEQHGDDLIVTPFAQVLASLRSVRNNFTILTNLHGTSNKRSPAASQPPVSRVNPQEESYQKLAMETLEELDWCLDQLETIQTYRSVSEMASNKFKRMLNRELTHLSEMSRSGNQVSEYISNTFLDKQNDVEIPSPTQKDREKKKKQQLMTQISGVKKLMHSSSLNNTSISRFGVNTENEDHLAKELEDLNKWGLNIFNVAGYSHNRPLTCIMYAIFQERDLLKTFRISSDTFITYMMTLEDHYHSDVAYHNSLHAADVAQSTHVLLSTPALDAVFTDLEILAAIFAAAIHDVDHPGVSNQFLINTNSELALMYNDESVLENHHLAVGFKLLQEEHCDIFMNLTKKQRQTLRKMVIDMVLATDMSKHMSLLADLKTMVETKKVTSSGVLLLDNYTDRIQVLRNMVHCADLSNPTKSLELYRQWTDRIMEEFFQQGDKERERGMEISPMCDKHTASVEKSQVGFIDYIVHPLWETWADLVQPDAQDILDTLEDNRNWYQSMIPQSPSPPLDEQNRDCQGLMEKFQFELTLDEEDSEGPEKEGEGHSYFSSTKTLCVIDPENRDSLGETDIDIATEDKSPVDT
Test: In-vitro assay for PDE4 enzymes, real-time enzyme-coupled spectrophotometric assay, PDE4B Activity (Table 10)
Assay type: biochemical
Settings: human PDE4B (hPDE4B), enzyme-coupled spectrophotometric assay; read-out: PDE4B Activity, hPDE4B
pIC50: −log10 of the molar value.
pIC50 by entry:

Query: In one line, give reported pIC50 of the entry COc1ccc(Cn2ccc(CN)cc2=O)cc1-c1cccc([N+](=O)[O-])c1 [P-213] .
Result: > 5.30

###

Molecular target: PDE4 (Homo sapiens)
Assay: In-vitro assay for PDE4 enzymes, real-time enzyme-coupled spectrophotometric assay (Table 9)
Format: biochemical
Details: human PDE4D; activity class, Table 9; read-out: hPDE4D
propertyName: IC50

Below, each entry is followed by its recorded IC50 result.
# compound, IC50
measured = [
    ("COc1ccc(CN2C(=O)CC[C@@H]2CN)cc1-c1cccc([N+](=O)[O-])c1", "< 5 µM"),
    ("COc1ccc(Cn2cncn2)cc1-c1cccc(SC)c1", "< 5 µM"),
    ("COc1ccc(Cc2ccc(CNC(=O)CN(C)C)cc2)c(F)c1-c1cccc([N+](=O)[O-])c1", "< 5 µM"),
    ("CN1CC[C@H](Oc2ccc(Cc3ccc(NC(N)=O)cc3)cc2-c2cccc(Cl)c2)C1", "5 to 20 µM"),
    ("COc1cc(F)c(C(O)c2ccc(F)cc2)cc1-c1cccc([N+](=O)[O-])c1 (stereo not shown)", "< 5 µM"),
]

Query: In one line, give reported IC50 of the entry "COc1ccc(Cc2cccc(CO)c2)cc1-c1cccc([N+](=O)[O-])c1" .
Result: < 5 µM

Query: In one line, give reported IC50 of the entry "O=[N+]([O-])c1cccc(-c2cc(Cc3ccc(F)cc3)ccc2O)c1" .
Result: < 5 µM

Query: In one line, give reported IC50 of the entry "COc1ccc(CN2CCCC2=O)cc1-c1cccc(SC)c1" .
Result: 5 to 20 µM

Query: In one line, give reported IC50 of the entry "COc1ccc(Cc2ccc(NC(=O)CCN)cc2)cc1-c1cccc([N+](=O)[O-])c1" .
Result: < 5 µM

Query: In one line, give reported IC50 of the entry COc1ccc(C(O)c2ccc(C#N)cc2)c(O)c1-c1cccc([N+](=O)[O-])c1 (stereo not shown) .
Result: < 5 µM
